Assay: Equilibration in solvents and aqueous media, solid form by XRPD
Format: physicochemical
Settings: pH = 6.8 buffer (phosphate)
Counter-ions that a name gives are not always drawn.
metric name: XRPD form after equilibration

                                   compound     result
0  Cc1[nH]c2ccccc2c1CCNCc1ccc(/C=C/C(=O)NO)cc1 [Form A of the maleate salt]  No change
1  Cc1[nH]c2ccccc2c1CCNCc1ccc(/C=C/C(=O)NO)cc1 [Free Base]  No change
2  Cc1[nH]c2ccccc2c1CCNCc1ccc(/C=C/C(=O)NO)cc1 [Form A of the L-tartarate salt]  free base
3  Cc1[nH]c2ccccc2c1CCNCc1ccc(/C=C/C(=O)NO)cc1 [Form A of the mesylate salt]  free base

###

Experiment: Sorption-desorption isotherms, VTI humidity balance
Type: physicochemical
Conditions: Sample RH % 50; 25° C., first sorption cycle
Where a name gives a salt, the structure may show the parent alone.
In this section we review reported Sorption values for a set of molecules.
metric name: Sorption (%)

>>> print(df.to_string())
                                   molecule  metric_name  measure_unit  quantitative_readout
0  Cc1[nH]c2ccccc2c1CCNCc1ccc(/C=C/C(=O)NO)cc1 [Form A of the mesylate salt]     Sorption             %                  0.16
1  Cc1[nH]c2ccccc2c1CCNCc1ccc(/C=C/C(=O)NO)cc1 [Form A of the maleate salt]     Sorption             %                  0.12
2  Cc1[nH]c2ccccc2c1CCNCc1ccc(/C=C/C(=O)NO)cc1 [Form A of the L-tartarate salt]     Sorption             %                   0.2
3  Cc1[nH]c2ccccc2c1CCNCc1ccc(/C=C/C(=O)NO)cc1 [Free Base]     Sorption             %                  5.17

###

In this section we review reported Sorption values for a set of compounds.
Test: Sorption-desorption isotherms, VTI humidity balance
Type: physicochemical
Details: Sample RH % 25; 25° C., first sorption cycle
Where a name gives a salt, the structure may show the parent alone.
metric name: Sorption (%)

>>> print(df.to_string())
                                   compound  quantitative_readout
0  Cc1[nH]c2ccccc2c1CCNCc1ccc(/C=C/C(=O)NO)cc1 [Free Base]                  3.39
1  Cc1[nH]c2ccccc2c1CCNCc1ccc(/C=C/C(=O)NO)cc1 [Form A of the mesylate salt]                   0.1
2  Cc1[nH]c2ccccc2c1CCNCc1ccc(/C=C/C(=O)NO)cc1 [Form A of the maleate salt]                  0.07
3  Cc1[nH]c2ccccc2c1CCNCc1ccc(/C=C/C(=O)NO)cc1 [Form A of the L-tartarate salt]                  0.11

###

Assay: Equilibration in solvents and aqueous media, solid form by XRPD
Type: physicochemical
Details: water
Structures can show the parent of a compound that is named as a salt.
metric name: XRPD form after equilibration

>>> df
                                   compound     result
0  Cc1[nH]c2ccccc2c1CCNCc1ccc(/C=C/C(=O)NO)cc1 [Form A of the L-tartarate salt]  No change
1  Cc1[nH]c2ccccc2c1CCNCc1ccc(/C=C/C(=O)NO)cc1 [Free Base]  No change
2  Cc1[nH]c2ccccc2c1CCNCc1ccc(/C=C/C(=O)NO)cc1 [Form A of the maleate salt]  No change
